Tgt: human GLP1R (Homo sapiens, UniProt P43220)
Sequence (P43220 24-463): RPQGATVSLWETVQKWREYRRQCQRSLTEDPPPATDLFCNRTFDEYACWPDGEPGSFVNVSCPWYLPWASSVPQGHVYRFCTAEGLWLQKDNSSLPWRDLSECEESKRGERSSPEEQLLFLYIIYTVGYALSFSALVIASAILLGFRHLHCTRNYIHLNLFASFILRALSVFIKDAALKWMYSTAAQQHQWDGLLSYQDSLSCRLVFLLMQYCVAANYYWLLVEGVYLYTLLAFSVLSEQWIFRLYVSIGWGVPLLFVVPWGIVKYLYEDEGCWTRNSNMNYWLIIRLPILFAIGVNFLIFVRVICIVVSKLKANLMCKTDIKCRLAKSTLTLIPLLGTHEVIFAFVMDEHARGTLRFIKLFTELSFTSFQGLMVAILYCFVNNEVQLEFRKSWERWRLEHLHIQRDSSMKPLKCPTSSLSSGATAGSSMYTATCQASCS
Assay name: Luciferase reporter assay, HEK293/CRE-Luc/hGLP1R cells (Example 11)
Type: cell-based
Parameters: engineered to express full-length human GLP1R, cynomolgus GLP1R; expressed in transfected cells; host or cells: HEK293/CRE-Luc
Experimental conditions: Table 11; Experiment A
Where a SMILES comes first, the peptide text is derived from it. [ ]: non-standard residue; d: D form. The star is where a group is joined. Bip(2'-Et,4'-O(CH2)4NH2) = CCc1cc(OCCCCN)ccc1-c1ccc(C[C@H](N)C(=O)O)cc1; Malonyl(2,2-Me2,histaminyl) = CC(C)(C(=O)NCCc1cnc[nH]1)C(=O)*; Nva(5-(3,5-Me2Ph)) = Cc1cc(C)cc(CCC[C@H](N)C(=O)O)c1; Ala(1H-tetrazol-5-yl) = N[C@@H](Cc1nnn[nH]1)C(=O)O; αMePhe(2-F) = C[C@](N)(Cc1ccccc1F)C(=O)O; NHPh = c1ccc(N*)cc1
Metric name: HEK293/CRE-LUC/hGLP1R S/N
Lab note: jot down the number only; don't add units.

Using known records, supply HEK293/CRE-LUC/hGLP1R S/N for CCc1cc(OCCCCN)ccc1-c1ccc(C[C@H](NC(=O)[C@H](CC(=O)O)NC(=O)[C@H](CO)NC(=O)[C@@H](NC(=O)[C@](C)(Cc2ccccc2F)NC(=O)[C@@H](NC(=O)CNC(=O)[C@H](Cc2nn[nH]n2)NC(=O)C(C)(C)C(=O)NCCc2cnc[nH]2)[C@@H](C)O)[C@@H](C)O)C(=O)N[C@@H](CCCc2cc(C)cc(C)c2)C(=O)Nc2ccccc2)cc1 [P23] ({Malonyl(2,2-Me2,histaminyl)}-[Ala(1H-tetrazol-5-yl)]GT[αMePhe(2-F)]TSD[Bip(2'-Et,4'-O(CH2)4NH2)][Nva(5-(3,5-Me2Ph))]-NHPh)
57.1

Data credit: patent US20230330254A1
